# System: HeLa Kyoto;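 note: synchronized HeLa Kyoto cells (double thymidine block for G1/S, nocodazole release for mitosis), protein amounts in NP-40 versus SDS lysates quantified by mass spectrometry, three biological replicates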
# Experiment Summary: solubility change mitosis vs G1/S (difference of NP-40 vs SDS log2 ratios) (log2 ratio difference); higher = more soluble in mitosis
Property Measured: solubility change mitosis (log2)
Just the number, please, no unit attached.

Lab note: sequence MASVSSATFSGHGARSLLQFLRLVGQLKRVPRTGWVYRNVQRPESVSDHMYRMAVMAMVIKDDRLNKDRCVRLALVHDMAECIVGDIAPADNIPKEEKHRREEEAMKQITQLLPEDLRKELYELWEEYETQSSAEAKFVKQLDQCEMILQASEYEDLEHKPGRLQDFYDSTAGKFNHPEIVQLVSELEAERSTNIAAAASEPHS [HDDC2] tested on HeLa Kyoto; recorded solubility change mitosis (log2) was 0.118

Noted solubility change mitosis (log2) for MSAPFEERSGVVPCGTPWGQWYQTLEEVFIEVQVPPGTRAQDIQCGLQSRHVALSVGGREILKGKLFDSTIADEGTWTLEDRKMVRIVLTKTKRDAANCWTSLLESEYAADPWVQDQMQRKLTLERFQKENPGFDFSGAEISGNYTKGGPDFSNLEK [NUDCD2] , tested on HeLa Kyoto: 0.035

The sequence MARYEEVSVSGFEEFHRAVEQHNGKTIFAYFTGSKDAGGKSWCPDCVQAEPVVREGLKHISEGCVFIYCQVGEKPYWKDPNNDFRKNLKVTAVPTLLKYGTPQKLVESECLQANLVEMLFSED [TXNDC17] on HeLa Kyoto: solubility change mitosis (log2) was -0.128

# value of solubility change mitosis (log2), HeLa Kyoto, item MAQGLIEVERKFLPGPGTEERLQELGGTLEYRVTFRDTYYDTPELSLMQADHWLRRREDSGWELKCPGAAGVLGPHTEYKELTAEPTIVAQLCKVLRADGLGAGDVAAVLGPLGLQEVASFVTKRSAWKLVLLGADEEEPQLRVDLDTADFGYAVGEVEALVHEEAEVPTALEKIHRLSSMLGVPAQETAPAKLIVYLQRFRPQDYQRLLEVNSSRERPQETEDPDHCLG [THTPA] = 0.0566
